# SUBJECT OF TEST: 1-deoxy-D-xylulose 5-phosphate reductoisomerase, apicoplastic (Plasmodium falciparum (isolate 3D7), UniProt Q8IKG4)
# Sequence (Q8IKG4 whole entry): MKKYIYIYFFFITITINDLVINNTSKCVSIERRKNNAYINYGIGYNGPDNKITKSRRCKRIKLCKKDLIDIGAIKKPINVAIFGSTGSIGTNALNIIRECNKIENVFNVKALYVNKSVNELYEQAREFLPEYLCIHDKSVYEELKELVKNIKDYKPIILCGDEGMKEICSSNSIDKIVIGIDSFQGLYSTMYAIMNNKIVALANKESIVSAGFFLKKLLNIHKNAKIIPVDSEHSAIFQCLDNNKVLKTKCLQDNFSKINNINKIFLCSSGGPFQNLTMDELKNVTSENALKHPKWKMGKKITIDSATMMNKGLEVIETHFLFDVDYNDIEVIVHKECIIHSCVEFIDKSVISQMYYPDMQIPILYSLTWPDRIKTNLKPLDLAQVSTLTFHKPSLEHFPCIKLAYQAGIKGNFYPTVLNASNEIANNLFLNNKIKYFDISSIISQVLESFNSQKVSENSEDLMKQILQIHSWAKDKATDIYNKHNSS
# EXPERIMENT NOTES: Inhibition of recombinant Plasmodium falciparum IspC expressed in Escherichia coli using 1-deoxy-D-xylulose 5-phosphate as substrate by photometric assay
OBSERVED PROPERTY: pIC50
Would you please state pIC50, meaning minus log10 of the concentration in mol/L, as a bare number?

[Q] Consider the molecule shown here: COc1cc(OC)cc(C(P(=O)(O)O)S(=O)(=O)CC(=O)NO)c1 (stereo not drawn) What is its recorded pIC50?
[A] 6.66

[Q] Consider the molecule shown here: CN(O)C(=O)CS(=O)(=O)C(c1ccccc1)P(=O)(O)O (stereo not drawn) What is its recorded pIC50?
[A] 5.12

[Q] Consider the molecule shown here: COc1cc(OC)cc(C(SCC(=O)NO)P(=O)(O)O)c1 (racemic) What is its recorded pIC50?
[A] 7.62

Hey, just so you know, these numbers are from ChEMBL document CHEMBL4406820.
